These data points were gathered from patent US20210403435A1.

# Test system: Amaranthus palmeri (AMAPA)
# METHOD: Post-emergence efficacy, glasshouse, evaluated after 13 days
# Assay type: in vivo
# EXPERIMENTAL_PARAMETERS: post-emergence application, 500 g/Ha, evaluated after 13 days
READOUT_LABEL: Control of weed species AMAPA (100=total damage to plant; 0=no damage to plant)
Just the number.

// known answers, use as guide
1. CCNC(=O)c1cc[n+](CCCOS(=O)(=O)[O-])nc1 ... 90
2. CNC(=O)c1cc[n+](CCS(=O)(=O)[O-])nc1C ... 100
3. CNC(=O)c1cc[n+](CC[C@H](N)C(=O)O)nc1.O=C(O)C(F)(F)F.O=C([O-])C(F)(F)F ... 90

Control of weed species AMAPA (100=total damage to plant; 0=no damage to plant) for `CN(NC(=O)c1cc[n+](CCC(=O)O)nc1)C(=O)OC(C)(C)C.O=C([O-])C(F)(F)F` is 100

###

# System: Setaria faberi (SETFA)
# METHOD: Post-emergence efficacy, glasshouse, evaluated after 13 days
# Assay type: in vivo
# EXPERIMENTAL_PARAMETERS: Setaria faberi, 312 h; post-emergence application, 500 g/Ha, evaluated after 13 days; read-out: Control of weed species SETFA (100=total damage to plant; 0=no damage to plant)
Consider the following molecules and their measured pest or weed control at 500 g/ha readings.
Note: unit % is implicit; provide only the numeric part.

// known answers, use as guide
1) CCCNC(=O)c1cc[n+](CCS(=O)(=O)[O-])nc1 ... 60
2) CN(C)S(=O)(=O)CCNC(=O)c1cc[n+](CCC(=O)O)nc1 ... 90
3) CNC(=O)c1cc[n+](CCCS(=O)(=O)[O-])nc1 ... 20
4) CNC(=O)c1cc[n+](CCS(=O)(=O)[O-])nc1 ... 80
5) CC[S+]([O-])CCNC(=O)c1cc[n+](CCC(=O)O)nc1 (stereo not drawn) ... 90
6) C#CCNC(=O)c1cc[n+](CCS(=O)(=O)[O-])nc1 ... 70
7) COC(=O)CC[n+]1ccc(C(=O)Nc2nccs2)cn1 ... 10
8) CNC(=O)c1cn[n+](CCS(=O)(=O)[O-])cc1-c1ccccc1 ... 30
9) O=C(O)CC[n+]1ccc(C(=O)NCc2ccccc2)cn1 ... 60
10) O=C(O)CC[n+]1ccc(C(=O)N2CC[S+]([O-])CC2)cn1 ... 90

Recorded pest or weed control at 500 g/ha for `O=C(O)CC[n+]1ccc(C(=O)NCC2CC2)cn1` on Setaria faberi (SETFA) was 100

Recorded pest or weed control at 500 g/ha for `CC(C)(C)NC(=O)c1cc[n+](CCC(=O)O)nc1` on Setaria faberi (SETFA) was 100

###

# Test system: Echinochloa crus-galli (ECHCG)
# METHOD: Post-emergence efficacy, glasshouse, evaluated after 13 days
# Type: in vivo
# EXPERIMENTAL_PARAMETERS: Echinochloa crus-galli, 312 h; post-emergence application, 500 g/Ha, evaluated after 13 days; read-out: Control of weed species ECHCG (100=total damage to plant; 0=no damage to plant)
READOUT_LABEL: pest or weed control at 500 g/ha (%)
Note: unit % is implicit; provide only the numeric part.

// known answers, use as guide
1) CCNC(=O)c1cc[n+](CCC(=O)O)nc1 ... 60
2) CCNC(=O)c1cc[n+](CCP(=O)(O)O)nc1 ... 30
3) COCC(C)NC(=O)c1cc[n+](CCC(=O)O)nc1 (centres unmarked) ... 90
4) CC(C)N(C)C(=O)c1cc[n+](CCC(=O)O)nc1 ... 30
5) O=C(O)CC[n+]1ccc(C(=O)NC2C[S+]([O-])C2)cn1 (centres unmarked) ... 100

pest or weed control at 500 g/ha for `CNC(=O)c1cc[n+](CCS(=O)(=O)[O-])nc1` is 60

pest or weed control at 500 g/ha for CC1CC1NC(=O)c1cc[n+](CCC(=O)O)nc1 (centres unmarked) is 90

pest or weed control at 500 g/ha for `O=C(NCC1CC1)c1cc[n+](CCS(=O)(=O)[O-])nc1` is 70

pest or weed control at 500 g/ha for `O=C(O)CC[n+]1ccc(C(=O)Nc2cnccn2)cn1` is 60

pest or weed control at 500 g/ha for `CN(C(=O)c1cc[n+](CCS(=O)(=O)O)nc1)c1ccccc1` is 10

pest or weed control at 500 g/ha for C[S+]([O-])CCNC(=O)c1cc[n+](CCC(=O)O)nc1 (centres unmarked) is 80

pest or weed control at 500 g/ha for `O=C(O)CC[n+]1ccc(C(=O)N2CCSCC2)cn1` is 40

pest or weed control at 500 g/ha for `CCCCNC(=O)c1cc[n+](CCC(=O)O)nc1` is 70

pest or weed control at 500 g/ha for `C#CCCNC(=O)c1cc[n+](CCC(=O)O)nc1` is 90

pest or weed control at 500 g/ha for `CCCCNC(=O)c1cc[n+](CCS(=O)(=O)[O-])nc1` is 40

pest or weed control at 500 g/ha for `CCNC(=O)c1cc[n+](CCCS(=O)(=O)[O-])nc1` is 30

pest or weed control at 500 g/ha for `CN(C)C(=O)c1cc[n+](CCCS(=O)(=O)O)nc1` is 20

pest or weed control at 500 g/ha for `COCCNC(=O)c1cc[n+](CCS(=O)(=O)[O-])nc1` is 80

pest or weed control at 500 g/ha for `CNC(=O)c1cc[n+](CCCS(=O)(=O)[O-])nc1` is 70

pest or weed control at 500 g/ha for `CNS(=O)(=O)CCNC(=O)c1cc[n+](CCC(=O)O)nc1` is 90
